# target.under.test: Mps-1 kinase (Homo sapiens, UniProt P33981)
# Sequence (P33981 1-857): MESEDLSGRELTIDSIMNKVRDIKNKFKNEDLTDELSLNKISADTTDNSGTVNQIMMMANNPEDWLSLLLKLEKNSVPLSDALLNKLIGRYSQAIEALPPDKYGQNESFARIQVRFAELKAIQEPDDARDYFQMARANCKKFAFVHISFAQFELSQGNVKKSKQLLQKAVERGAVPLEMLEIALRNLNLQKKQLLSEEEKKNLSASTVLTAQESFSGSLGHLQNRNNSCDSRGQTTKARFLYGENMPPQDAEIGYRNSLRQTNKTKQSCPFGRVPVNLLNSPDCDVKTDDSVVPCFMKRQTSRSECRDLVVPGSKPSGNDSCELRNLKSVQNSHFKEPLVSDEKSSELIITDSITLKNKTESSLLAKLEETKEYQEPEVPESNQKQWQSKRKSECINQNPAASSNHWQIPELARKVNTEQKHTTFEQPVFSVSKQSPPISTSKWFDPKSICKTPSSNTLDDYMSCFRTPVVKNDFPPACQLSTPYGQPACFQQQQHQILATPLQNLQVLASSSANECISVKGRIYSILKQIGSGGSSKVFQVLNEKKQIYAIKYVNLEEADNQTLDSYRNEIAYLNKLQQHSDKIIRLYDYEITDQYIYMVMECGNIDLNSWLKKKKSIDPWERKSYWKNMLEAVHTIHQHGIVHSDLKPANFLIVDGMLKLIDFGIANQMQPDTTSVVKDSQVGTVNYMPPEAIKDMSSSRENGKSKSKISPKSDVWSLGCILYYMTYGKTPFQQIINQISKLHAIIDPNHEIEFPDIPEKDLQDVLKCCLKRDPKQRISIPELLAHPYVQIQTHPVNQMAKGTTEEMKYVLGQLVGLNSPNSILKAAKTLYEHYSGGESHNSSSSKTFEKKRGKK
# protocol.details: Mps-1 kinase assay with 2 mM ATP (TR-FRET)
pIC50: −log10 of the molar value.
parameter.measured: pIC50

CCN(CC)C(=O)c1ccc(Nc2nc3ccc(-c4ccc(NC(=O)Cc5ccc(F)cc5)cc4)cn3n2)c(OCC2CC2)c1    8.92
CS(=O)(=O)c1ccc(Nc2nc3ccc(-c4ccc(C(=O)NCc5ccc(F)cc5)cc4)cn3n2)c(OC(F)F)c1    8.46
Cc1cc([S@@+](C)[O-])ccc1Nc1nc2ccc(-c3ccc(NC(=O)Cc4ccc(F)cc4)cc3)cn2n1 (stereo in doubt)    8.85
COc1cc(C(=O)N(C)CC(F)(F)F)ccc1Nc1nc2ccc(-c3ccc(NC(=O)Cc4ccc(F)cc4)cc3)cn2n1    8.60
COCCNC(=O)c1ccc(Nc2nc3ccc(-c4ccc(C(=O)NCc5ccc(F)cc5)cc4)cn3n2)c(OC)c1    8.80

###

We begin with a simple list: items and their reported pIC50.
# target.under.test: Mps-1 kinase (Homo sapiens, UniProt P33981)
# protocol.details: Mps-1 kinase assay with 10 μM ATP (TR-FRET)
pIC50: −log10 of the molar value.
parameter.measured: pIC50

COc1cc(C(=O)N(C)CCN(C)C(C)=O)ccc1Nc1nc2ccc(-c3ccc(NC(=O)Cc4ccc(F)cc4)cc3)cn2n1 [Example 01.14]    ≥ 9.00
Cc1cc(-c2ccc3nc(Nc4ccc(S(C)(=O)=O)cc4OCC(F)(F)F)nn3c2)ccc1C(=O)NCc1ccc(F)cc1 [Example 04.2]    ≥ 9.00
COc1cc(C(=O)NC(C)(C)CO)ccc1Nc1nc2ccc(-c3ccc(C(=O)NCc4ccc(F)cc4)c(C)c3)cn2n1 [Example 04.1]    ≥ 9.00
CC(C)S(=O)(=O)c1ccc(Nc2nc3ccc(-c4ccc(C(=O)NCc5ccc(F)cc5)cc4)cn3n2)c(OC(F)F)c1 [Example 12.62]    ≥ 9.00
N#Cc1ccccc1Nc1nc2ccc(-c3ccc(NC(=O)Cc4cccc(F)c4)cc3)cn2n1 [Example 7, reference compound]    8.96
Cc1ccc(C#N)c(Nc2nc3ccc(-c4ccc(NC(=O)Cc5ccccc5)cc4)cn3n2)c1 [Example 10, reference compound]    8.68
COc1cc(C(=O)NCC(F)F)ccc1Nc1nc2ccc(-c3ccc(C(=O)NCc4ccc(F)cc4)cc3)cn2n1 [Example 12.47]    ≥ 9.00

###

We begin with a simple list: items and their reported IC50.
# target.under.test: Mps-1 kinase (Homo sapiens)
# protocol.details: Mps-1 kinase assay with 2 mM ATP (TR-FRET)
parameter.measured: IC50

CNCCN(C)C(=O)c1ccc(Nc2nc3ccc(-c4ccc(C(=O)NCc5ccc(F)cc5)cc4)cn3n2)c(OC)c1 [Example 02.11]    ≤ 1 nM
CCOc1cc(C(=O)N(CC)CCOC)ccc1Nc1nc2ccc(-c3ccc(NC(=O)Cc4ccc(F)cc4)cc3)cn2n1 [Example 01.18]    ≤ 1 nM
COc1cc(S(=O)(=O)NC(C)(C)C)ccc1Nc1nc2ccc(-c3ccc(NC(=O)Cc4ccc(F)cc4)cc3)cn2n1 [Example 12.15]    1.6 nM
COCCNC(=O)c1ccc(Nc2nc3ccc(-c4ccc(NC(=O)Cc5ccc(F)cc5)cc4)cn3n2)c(OC)c1 [Example 12.01]    ≤ 1 nM
COc1cc(C(=O)NCCN(C)C)ccc1Nc1nc2ccc(-c3ccc(NC(=O)Cc4ccc(F)cc4)cc3)cn2n1 [Example 12.10]    ≤ 1 nM
COc1cc(C(N)=O)ccc1Nc1nc2ccc(-c3ccc(C(=O)NCc4ccc(F)cc4)cc3)cn2n1 [Example 12.43]    ≤ 1 nM
COc1cc(S(C)(=N)=O)ccc1Nc1nc2ccc(-c3ccc(NC(=O)Cc4ccc(F)cc4)cc3)cn2n1 (centres unmarked) [Example 12.82]    ≤ 1 nM
COc1cc(C(=O)NCC(F)(F)F)ccc1Nc1nc2ccc(-c3ccc(C(=O)NCc4ccc(F)cc4)cc3)cn2n1 [Example 02.17]    4.6 nM

###

We begin with a simple list: items and their reported IC50.
# target.under.test: Mps-1 kinase (Homo sapiens)
# protocol.details: Mps-1 kinase assay with 10 μM ATP (TR-FRET)
parameter.measured: IC50

COc1cc(C(=O)NC(C)(C)C)ccc1Nc1nc2ccc(-c3ccc(NC(=O)Cc4ccc(F)cc4)cc3)cn2n1 [Example 01.5]    ≤ 1 nM
CCS(=O)(=O)c1ccc(Nc2nc3ccc(-c4ccc(C(=O)NCc5ccc(F)cc5)cc4)cn3n2)c(OC(F)F)c1 [Example 12.61]    ≤ 1 nM
CS(=O)(=O)c1ccc(Nc2nc3ccc(-c4ccc(NC(=O)Cc5ccc(F)cc5)cc4)cn3n2)c(OCC(F)(F)F)c1 [Example 01.34]    ≤ 1 nM
CCS(=O)(=O)c1ccc(Nc2nc3ccc(-c4ccc(NC(=O)Cc5ccc(F)cc5)cc4)cn3n2)c(OC(F)F)c1 [Example 01.36]    ≤ 1 nM
COc1cc(C(=O)NCCS(C)(=O)=O)ccc1Nc1nc2ccc(-c3ccc(C(=O)NCc4ccc(F)cc4)cc3)cn2n1 [Example 02.15]    ≤ 1 nM
Cc1cc(N(C)C)ccc1Nc1nc2ccc(-c3ccc(C(=O)NCc4ccc(F)cc4)cc3)cn2n1 [Example 02.24]    ≤ 1 nM
CCN(CC)C(=O)c1ccc(Nc2nc3ccc(-c4ccc(NC(=O)Cc5ccc(F)cc5)cc4)cn3n2)c(OC)c1 [Example 01.1]    ≤ 1 nM

###

# target.under.test: Mps-1 kinase (Homo sapiens)
# protocol.details: Mps-1 kinase assay with 2 mM ATP (TR-FRET)
Reported IC50 maps to class as: group 1 = under 2 nM, group 2 = from 2 nM up to 7 nM, group 3 = 7 nM and over

COc1cc(S(C)(=N)=O)ccc1Nc1nc2ccc(-c3ccc(C(=O)NCc4ccc(F)cc4)cc3)cn2n1 (stereo not drawn) [Example 12.83]    group 1
CCOc1cc(C(=O)N(C)CC)ccc1Nc1nc2ccc(-c3ccc(NC(=O)Cc4ccc(F)cc4)cc3)cn2n1 [Example 12.19]    group 1
CC(C)(O)CNC(=O)c1ccc(Nc2nc3ccc(-c4ccc(NC(=O)Cc5ccc(F)cc5)cc4)cn3n2)c(OCC(F)(F)F)c1 [Example 01.29]    group 1
C[S@@+]([O-])c1ccc(Nc2nc3ccc(-c4ccc(NC(=O)Cc5ccc(F)cc5)cc4)cn3n2)c(OCC(F)(F)F)c1 (stereo in doubt) [Example 12.24]    group 1
COc1cc(C(=O)NCCCF)ccc1Nc1nc2ccc(-c3ccc(C(=O)NCc4ccc(F)cc4)cc3)cn2n1 [Example 12.50]    group 2
COc1cc(C(=O)NC(C)(C)CO)ccc1Nc1nc2ccc(-c3ccc(NC(=O)Cc4ccc(F)cc4)cc3)cn2n1 [Example 01.13]    group 1
CS(=O)(=O)c1ccc(Nc2nc3ccc(-c4ccc(NC(=O)Cc5ccc(F)cc5)cc4)cn3n2)c(OC2CC2)c1 [Example 01.37]    group 1
COc1cc(C(C)(C)O)ccc1Nc1nc2ccc(-c3ccc(C(=O)NCc4ccc(F)cc4)cc3)cn2n1 [Example 12.54]    group 1
CC(C)S(=O)(=O)c1ccc(Nc2nc3ccc(-c4ccc(NC(=O)Cc5ccc(F)cc5)cc4)cn3n2)c(OC(F)F)c1 [Example 12.26]    group 1
COc1cc(C(=O)NCC(F)(F)F)ccc1Nc1nc2ccc(-c3ccc(C(=O)NCc4ccc(Cl)cc4)cc3)cn2n1 [Example 12.72]    group 3
Cc1cc(NS(C)(=O)=O)ccc1Nc1nc2ccc(-c3ccc(NC(=O)Cc4ccc(F)cc4)cc3)cn2n1 [Example 12.34]    group 2
COc1ccc(Nc2nc3ccc(-c4ccc(NC(=O)Cc5ccc(F)cc5)cc4)cn3n2)c(C)c1 [Example 12.35]    group 2
COc1cc(C(=O)NCCF)ccc1Nc1nc2ccc(-c3ccc(NC(=O)Cc4ccc(F)cc4)cc3)cn2n1 [Example 12.05]    group 1
CCOc1cc(S(=O)(=O)CC)ccc1Nc1nc2ccc(-c3ccc(C(=O)NCc4ccc(F)cc4)cc3)cn2n1 [Example 02.26]    group 2
COc1cc(C(=O)NCC(F)F)ccc1Nc1nc2ccc(-c3ccc(C(=O)NCc4ccc(F)cc4)cc3)cn2n1 [Example 12.47]    group 2
COc1cc([S@@+](C)[O-])c(F)cc1Nc1nc2ccc(-c3ccc(NC(=O)Cc4ccc(F)cc4)cc3)cn2n1 (stereo in doubt) [Example 12.14]    group 3
CCOc1cc(C(=O)NCCS(C)(=O)=O)ccc1Nc1nc2ccc(-c3ccc(NC(=O)Cc4ccc(F)cc4)cc3)cn2n1 [Example 01.28]    group 1
CC(C)(CO)NC(=O)c1ccc(Nc2nc3ccc(-c4ccc(NC(=O)Cc5ccc(F)cc5)cc4)cn3n2)c(OCC(F)(F)F)c1 [Example 12.22]    group 1
CCNC(=O)c1ccc(Nc2nc3ccc(-c4ccc(C(=O)NCc5ccc(F)cc5)cc4)cn3n2)c(OC)c1 [Example 02.20]    group 1
COc1cc(C(=O)NCC(F)(F)F)ccc1Nc1nc2ccc(-c3ccc(C(=O)NCc4ccc(F)cc4F)cc3)cn2n1 [Example 12.79]    group 3
COc1cc(S(C)(=O)=O)c(F)cc1Nc1nc2ccc(-c3ccc(NC(=O)Cc4ccc(F)cc4)cc3)cn2n1 [Example 12.12]    group 3
Cc1ccc(CNC(=O)c2ccc(-c3ccc4nc(Nc5ccc(S(C)(=O)=O)cc5C)nn4c3)cc2)cc1 [Example 12.77]    group 3
COc1cc(C(=O)N(C)CCN(C)C)ccc1Nc1nc2ccc(-c3ccc(C(=O)NCc4ccc(F)cc4)cc3)cn2n1 [Example 12.49]    group 2
COc1cc(C(=O)NC(C)(C)CO)ccc1Nc1nc2ccc(-c3ccc(C(=O)NCc4ccc(F)cc4)c(OC)c3)cn2n1 [Example 08.1]    group 2
CCOc1cc(C(=O)NCCF)ccc1Nc1nc2ccc(-c3ccc(C(=O)NCc4ccc(F)cc4)cc3)cn2n1 [Example 12.57]    group 1
COc1cc(C(=O)NCCF)ccc1Nc1nc2ccc(-c3ccc(C(=O)NCc4ccc(F)cc4)cc3)cn2n1 [Example 12.45]    group 1
